Reference source for all entries: paper PMC4506051

experiment: Exploratory trial: plasma concentration of rikkunshito ingredients after single oral rikkunshito 7.5 g; type: in vivo; details: 0.5 h after single oral rikkunshito 7.5 g; mean ± S.D., n = 4
ASSAY_ENDPOINT: Plasma concentration, 0.5 h

The cases that follow already have their Plasma concentration, 0.5 h on record.
COMPOUND	ASSAY_ENDPOINT	RESULT
COc1ccc(-c2cc(=O)c3c(OC)c(OC)c(OC)c(OC)c3o2)cc1OC [Nobiletin]	Plasma concentration, 0.5 h	0.047 ± 0.0474 ng/mL
C=C(CC[C@@H](C(=O)O)[C@H]1[C@H](O)C[C@@]2(C)C3=C(CC[C@]12C)[C@@]1(C)CC[C@H](OC(C)=O)C(C)(C)[C@@H]1CC3)C(C)C [Pachymic acid]	Plasma concentration, 0.5 h	0.126 ± 0.185 ng/mL
C[C@@H]1O[C@@H](O[C@H]2[C@H](Oc3cc(O)c4c(c3)O[C@H](c3ccc(O)cc3)CC4=O)O[C@H](CO)[C@@H](O)[C@@H]2O)[C@H](O)[C@H](O)[C@H]1O [Naringin]	Plasma concentration, 0.5 h	BQL
CNCC(O)c1ccc(O)cc1 (stereo not drawn) [Synephrine]	Plasma concentration, 0.5 h	0.029 ± 0.058 ng/mL
CC(C)=CCC[C@](C)(O[C@@H]1O[C@H](CO)[C@@H](O)[C@H](O)[C@H]1O)[C@H]1CC[C@]2(C)[C@@H]1[C@H](O)C[C@@H]1[C@@]3(C)CC[C@H](O[C@@H]4O[C@H](CO)[C@@H](O)[C@H](O)[C@H]4O[C@@H]4O[C@H](CO)[C@@H](O)[C@H](O)[C@H]4O)C(C)(C)[C@@H]3CC[C@]12C [Ginsenoside Rd]	Plasma concentration, 0.5 h	BQL

Problem: Read off the recorded Plasma concentration, 0.5 h for O=C1C[C@@H](c2ccc(O[C@@H]3O[C@H](CO)[C@@H](O)[C@H](O)[C@H]3O)cc2)Oc2cc(O)ccc21 [Liquiritin]
Solution: 1.02 ± 0.131 ng/mL
